# reported recombinant barcode read abundance (log10); entries follow
- assay_text: recombinant barcode read abundance after kanamycin selection (control-corrected) (log10(CPM+1)); higher = more efficient recombination; sequences stand for … in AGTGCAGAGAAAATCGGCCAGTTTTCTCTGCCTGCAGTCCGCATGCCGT…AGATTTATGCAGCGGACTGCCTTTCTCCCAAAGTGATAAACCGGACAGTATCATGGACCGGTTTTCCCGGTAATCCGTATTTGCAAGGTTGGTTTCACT; site = the 11-nt target
value_type: recombinant barcode read abundance (log10)

| residues | result |
| --- | --- |
| CATTGGACTTGGGTTCTAACCTGTTGCCT (site CATTGGACTAG) | 0.662 |
| CAAACTCCTTGGGTTCTAACCTGTTGCTT (site CAAACTCCTAC) | 0.0428 |
| GTGGTATCTTGGGTTCTAACCTGTTGCCT (site GTGGTACCTAG) | 0.396 |
| TCCAAGCCTTGGGTTCTAACCTGTTGCAG (site TCCAATCCTCT) | 0.39 |
| CGAATCGCTTGGGTTCTAACCTGTTGCCT (site CGAATCACTAG) | 0.374 |
| CTTACCGCTTGGGTTCTAACCTGTTGCCT (site CTTACGGCTAG) | 0.235 |
| TAGGAAGCTTGGGTTCTAACCTGTTGCGA (site TAGAAAGCTTG) | 0.108 |
| AGGTTCCCTTGGGTTCTAACCTGTTGCTT (site AGGTTCCCTAA) | 1.41 |
| CAATGGTCTTGGGTTCTAACCTGTTGCGT (site CAATGGTCTAT) | 2.16 |
| CCTAAGACTTGGGTTCTAACCTGTTGCCC (site CCTAAGACTTG) | 0.0914 |

###

- assay_text: recombinant barcode read abundance after kanamycin selection (control-corrected) (log10(CPM+1)); higher = more efficient recombination; sequences stand for … in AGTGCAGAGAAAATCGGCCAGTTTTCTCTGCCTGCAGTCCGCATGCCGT…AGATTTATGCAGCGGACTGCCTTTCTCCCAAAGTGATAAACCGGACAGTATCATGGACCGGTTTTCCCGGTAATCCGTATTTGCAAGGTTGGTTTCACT; site = the 11-nt target
Think of 0.2 as a floor: if recombinant barcode read abundance (log10) stands on it or above, it is T; beneath it, F.

| residues | label |
| --- | --- |
| TCTCACTCTTGGGTTCTAACCTGTTGCCT (site TCGCACTCTAG) | F |
| GGGGCGTCTTGGGTTCTAACCTGTTGCTT (site GGGGCATCTAA) | T |
| CACAATCCTTGGGTTCTAACCTGTTGCGT (site CACACACCTAC) | F |
| AGACGTCCTTGGGTTCTAACCTGTTGCTT (site AGACGTCCTAA) | T |
| TAGCTCACTTGGGTTCTAACCTGTTGCGG (site TAGCCCACTCC) | T |
| TATGAGGCTTGGGTTCTAACCTGTTGCCT (site TATGTGGCTAG) | F |
| GGTGGGACTTGGGTTCTAACCTGTTGCAC (site GGTGGGACTGT) | T |
| GCGGTGACTTGGGTTCTAACCTGTTGCCT (site GCGGTGACTAG) | T |
| ACTTTACCTTGGGTTCTAACCTGTTGCCT (site TCTTTACCTAG) | F |
| CCTACAACTTGGGTTCTAACCTGTTGCCT (site CCTACACCTAG) | F |
| GCTGGGCCTTGGGTTCTAACCTGTTGCGA (site GCTGGGCCTTC) | T |
| ACGCACTCTTGGGTTCTAACCTGTTGCCG (site GATGGTACTAT) | F |
| GGATCCTCTTGGGTTCTAACCTGTTGCAT (site GGATCCTCTAT) | T |
| GTGAGGTCTTGGGTTCTAACCTGTTGCTT (site GTGAGGTCTAT) | T |
| GGTCAACCTTGGGTTCTAACCTGTTGCCT (site GCTCAACCTAG) | F |
| GGTCAGTCTTGGGTTCTAACCTGTTGCGG (site TAGTTTACTTA) | F |
| CGATAGCCTTGGGTTCTAACCTGTTGCCT (site TGATAGCCTAG) | F |
| TCTGGGGCTTGGGTTCTAACCTGTTGCTG (site TCTGGGGCTCC) | T |
| CGTTGCCCTTGGGTTCTAACCTGTTGCCT (site CATTGCCCTAG) | F |
| GATTTCGCTTGGGTTCTAACCTGTTGCCT (site ATCAGTTCTCA) | F |

###

- assay_text: recombinant barcode read abundance after kanamycin selection (control-corrected) (log10(CPM+1)); higher = more efficient recombination; sequences stand for … in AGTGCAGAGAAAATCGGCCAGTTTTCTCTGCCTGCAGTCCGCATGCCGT…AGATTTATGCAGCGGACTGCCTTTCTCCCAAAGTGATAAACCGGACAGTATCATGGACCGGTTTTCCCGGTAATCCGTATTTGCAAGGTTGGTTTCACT; site = the 11-nt target
value_type: recombinant barcode read abundance (log10)

| residues | result_number |
| --- | --- |
| GGGAATGCTTGGGTTCTAACCTGTTGCCT (site GGGAATGCTAG) | 2.35 |
| TGGCCCTCTTGGGTTCTAACCTGTTGCTG (site TGGCCCTCTAA) | 0.784 |
| TCGGCGACTTGGGTTCTAACCTGTTGCCT (site TCAGCGACTAG) | 0.11 |
| TTAAATCCTTGGGTTCTAACCTGTTGCCT (site GTAAATCCTAG) | 0.249 |
| AAGTCGTCTTGGGTTCTAACCTGTTGCCT (site ACGTCGTCTAG) | 0.0906 |
| ATTAGGACTTGGGTTCTAACCTGTTGCTG (site ATTAGGACTCT) | 1.56 |
| GATCGATCTTGGGTTCTAACCTGTTGCGT (site GATCGATCTAG) | 0.284 |
| TTCCCGCCTTGGGTTCTAACCTGTTGCCT (site TTCCCGCCTAG) | 0.543 |
| ATCAAGCCTTGGGTTCTAACCTGTTGCTT (site ATGAAGCCTAA) | 0.122 |
| GGCAGCTCTTGGGTTCTAACCTGTTGCTT (site GGCAGATCTAA) | 0.367 |

###

- assay_text: recombinant UMI read abundance after kanamycin selection (control-corrected) (log10(CPM+1)); higher = more efficient recombination; extreme values may be limits of the assay; sequences stand for … in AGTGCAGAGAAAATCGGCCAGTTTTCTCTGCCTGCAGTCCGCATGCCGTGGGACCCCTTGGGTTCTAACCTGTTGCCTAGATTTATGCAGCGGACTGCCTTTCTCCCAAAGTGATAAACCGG…AGGTTGGTTTCACT; site = the 11-nt donor
Think of 0.02 as a floor: if recombinant UMI read abundance (log10) stands on it or above, it is satisfied; beneath it, not satisfied.

| residues | label |
| --- | --- |
| CTCGGATCATGGACCGGTTTTCCCGGTAATCCGTATTTGGA (site CTCGGATCTTC) | satisfied |
| TACAACACATGGACCGGTTTTCCCGGTAATCCGTATTTGTG (site TACAACACTCA) | satisfied |
| AGGAAGACATGGACCGGTTTTCCCGGTAATCCGTATTTGCA (site AGGAACCCTTG) | not satisfied |
| GGCCACCCATGGACCGGTTTTCCCGGTAATCCGTATTTGTT (site GTCCACCCTAA) | satisfied |
| GCTTGACCATGGACCGGTTTTCCCGGTAATCCGTATTTGAT (site GCTTGACCTAT) | not satisfied |
| TTGGAATCATGGACCGGTTTTCCCGGTAATCCGTATTTGCG (site TTGGAATCTCG) | satisfied |
| TGGTAGGCATGGACCGGTTTTCCCGGTAATCCGTATTTGGT (site TGTTAGGCTAC) | satisfied |
| TAGGGAACATGGACCGGTTTTCCCGGTAATCCGTATTTGGC (site TAGGGAACTGC) | satisfied |

###

- assay_text: recombinant barcode read abundance after kanamycin selection (control-corrected) (log10(CPM+1)); higher = more efficient recombination; sequences stand for … in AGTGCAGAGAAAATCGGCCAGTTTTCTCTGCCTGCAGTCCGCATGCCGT…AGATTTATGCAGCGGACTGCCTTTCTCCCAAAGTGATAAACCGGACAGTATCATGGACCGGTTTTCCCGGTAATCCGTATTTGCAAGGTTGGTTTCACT; site = the 11-nt target
# recombinant barcode read abundance (log10) binned as low range (below 0.1), mid range (0.1 to below 0.5), high range (0.5 or more)

| residues | label |
| --- | --- |
| GTGTCTCCTTGGGTTCTAACCTGTTGCAT (site GTGTGTCCTAT) | mid range |
| AAGTCGTCTTGGGTTCTAACCTGTTGCTA (site GCAATTGCTAG) | mid range |
| GCTCCATCTTGGGTTCTAACCTGTTGCCT (site GTTCCATCTAG) | mid range |
| CTTCACGCTTGGGTTCTAACCTGTTGCCT (site CTTCACGCTAG) | high range |
| AGGTCCTCTTGGGTTCTAACCTGTTGCGT (site AGGTCCTCTAC) | high range |
| AACATGCCTTGGGTTCTAACCTGTTGCTT (site AACAAGCCTCA) | mid range |
| TGAAATACTTGGGTTCTAACCTGTTGCCT (site TGAATTACTAG) | low range |
| ACTCGGCCTTGGGTTCTAACCTGTTGCCT (site ACTCGGCCTAC) | low range |
| AGCGTCGCTTGGGTTCTAACCTGTTGCCT (site AGCGTCGCTAG) | high range |
| CTACGTCCTTGGGTTCTAACCTGTTGCTT (site CTACGTCCTTA) | low range |
| TCTTATACTTGGGTTCTAACCTGTTGCGT (site TCTTATACTAC) | mid range |
| AGATATACTTGGGTTCTAACCTGTTGCTT (site AGATATACTAA) | mid range |
| CATCAAGCTTGGGTTCTAACCTGTTGCCT (site GTATGGACTTT) | low range |
| GCTTGGACTTGGGTTCTAACCTGTTGCCT (site GCTTGGACTAG) | mid range |
| AGACGTCCTTGGGTTCTAACCTGTTGCTT (site AGACCTCCTAA) | mid range |
| AAGCATCCTTGGGTTCTAACCTGTTGCCT (site AGGCATCCTAG) | mid range |
| CGGAGCCCTTGGGTTCTAACCTGTTGCCT (site CGGAGCCCTAG) | high range |
| CCAATCTCTTGGGTTCTAACCTGTTGCCT (site CGTATCTCTAG) | low range |
| GTGCCCTCTTGGGTTCTAACCTGTTGCCG (site GTGCCCTCTCG) | high range |
| GACGGACCTTGGGTTCTAACCTGTTGCAT (site GACGGACCTAT) | high range |
| TTGAGATCTTGGGTTCTAACCTGTTGCCT (site TTGAGATCTAG) | low range |
| GAGGGGACTTGGGTTCTAACCTGTTGCAG (site GAGGGGACTCT) | high range |
| TAACCATCTTGGGTTCTAACCTGTTGCCT (site TACCCATCTAG) | low range |
| CCGGTCCCTTGGGTTCTAACCTGTTGCAG (site CCGGTCCCTCT) | high range |
| TACTATACTTGGGTTCTAACCTGTTGCCT (site TACTATTCTAG) | mid range |
| CATGTGTCTTGGGTTCTAACCTGTTGCGG (site CATGCGCCTCC) | low range |
| TATTGATCTTGGGTTCTAACCTGTTGCCT (site TAGTGATCTAG) | low range |
| TAGGAACCTTGGGTTCTAACCTGTTGCGT (site GAGGAGCCTAC) | low range |
| TGTAGTCCTTGGGTTCTAACCTGTTGCCT (site TGTAGTCCTAT) | mid range |
| TATACAACTTGGGTTCTAACCTGTTGCCT (site TATAGAACTAG) | low range |
| GGGGACCCTTGGGTTCTAACCTGTTGCGT (site GGGGACCCTGC) | high range |
| GCTTGAGCTTGGGTTCTAACCTGTTGCCT (site GCGTGAGCTAG) | mid range |
| TACCCACCTTGGGTTCTAACCTGTTGCCT (site CACCCACCTAG) | mid range |
| CAAGTACCTTGGGTTCTAACCTGTTGCCT (site AAAGTACCTAG) | mid range |
| CTCCAAGCTTGGGTTCTAACCTGTTGCCT (site CTCCAAGCTAG) | high range |
| GCCTACCCTTGGGTTCTAACCTGTTGCGG (site GCCTACCCTCC) | mid range |
| AGTCATCCTTGGGTTCTAACCTGTTGCCT (site AGTCATCCTAG) | high range |
| CTAGGCCCTTGGGTTCTAACCTGTTGCAT (site CTAGGCCCTAC) | high range |
| CTACACCCTTGGGTTCTAACCTGTTGCTT (site CTACACCCTAA) | high range |
